Test system: Vero E6 infected with SARS-CoV-2
Assay explanation: morphology score (similarity to uninfected cells); higher = more like uninfected cells
Stated conditions: 24 h
Classification field: rule met = morphology score at or over 0.1; rule not met = morphology score under 0.1.

Exercise: Does morphology score meet or surpass 0.1 for NC(=O)c1ncn([C@@H]2O[C@H](CO)[C@@H](O)[C@H]2O)c1O [mizoribine] (10 µM) ?
Solution: rule not met

Exercise: Does morphology score meet or surpass 0.1 for COC(=O)[C@H]1[C@H]2C[C@@H]3c4[nH]c5cc(OC)ccc5c4CCN3C[C@H]2C[C@@H](OC(=O)c2cc(OC)c(OC)c(OC)c2)[C@@H]1OC [reserpine] (10 µM) ?
Solution: rule met

Exercise: Does morphology score meet or surpass 0.1 for COc1ccc(CCCO[C@@H](Cn2ccnc2)c2ccc(OC)cc2)cc1 (0.833333 µM) ?
Solution: rule not met

Exercise: Does morphology score meet or surpass 0.1 for C=CC[N+]1([C@H]2C[C@H]3[C@@H]4CC[C@H]5C[C@H](O)[C@@H](N6CCOCC6)C[C@]5(C)[C@H]4CC[C@]3(C)[C@H]2OC(C)=O)CCCC1 (10 µM) ?
Solution: rule not met

Exercise: Does morphology score meet or surpass 0.1 for Cc1nc(NC(=O)N2CCC[C@H]2C(N)=O)sc1-c1ccnc(C(C)(C)C(F)(F)F)c1 [alpelisib] (10 µM) ?
Solution: rule not met

Exercise: Does morphology score meet or surpass 0.1 for O=C(Nc1c(Cl)cncc1Cl)c1ccc(OC(F)F)c(OCC2CC2)c1 [roflumilast] (10 µM) ?
Solution: rule met

Exercise: Does morphology score meet or surpass 0.1 for O=C(O)c1cc(=O)c2c(OCC(O)COc3cccc4oc(C(=O)O)cc(=O)c34)cccc2o1 [cromoglicic-acid] (10 µM) ?
Solution: rule met
